Tested on: TK-10
Experiment: NCI tumour cell line growth inhibition, 48 h
Calls of active or inactive are those of the source. No stated cut-off is given here; in the data, active = GI50 up to about 1.1 µM and inactive = higher.
measuredEndpoint: GI50

// worked examples, GI50 included
compound	GI50
O=C(ON=C1c2ccccc2C(Br)C(Br)c2ccccc21)c1cc([N+](=O)[O-])cc([N+](=O)[O-])c1 (stereo not given)	23.2 µM (inactive)
NS(=O)(=O)c1nnc(NS(=O)(=O)c2ccc(Cl)cc2)s1	> 100 µM (inactive)
CCN(CC)CCCNc1nc2ccccc2[n+]([O-])n1	> 100 µM (inactive)
COc1cc2c(c(O)c1OC)C(O)C1CCC(=O)N1C2c1ccc2c(c1)OCO2 (stereo not given)	> 100 µM (inactive)
Cc1ccc(NP(=O)(Oc2ccccc2)N(CCCl)CCCl)cc1 (stereo not given)	> 100 µM (inactive)
NCCCSCC(=O)O	> 100 µM (inactive)
COc1ccc(/C=N/N2C(=O)c3c(N)c(C#N)c(-c4ccccc4)c(-c4ccccc4)c3C2=O)cc1	42.4 µM (inactive)
NC(=O)NC1NC(=O)NC1=O (stereo not given)	> 100 µM (inactive)
CC(=O)OCC1OC(OCCCOP(=O)(OCCC#N)OCC2OC(n3cnc4c(N)ncnc43)C(OC(=O)c3ccccc3)C2OC(=O)c2ccccc2)C(OC(C)=O)C(OC(C)=O)C1OC(C)=O (stereo not given)	> 100 µM (inactive)
O=C(CN1CCCCC1)c1ccc2[nH]c(=O)oc2c1	> 100 µM (inactive)

Please give GI50 for each item listed below.
1. CCC(C)C1NC(=O)C(NC(=O)c2c3nc4c(C(=O)NC5C(=O)NC(C(C)CC)C(=O)N6CCCC6C(=O)N(C)CC(=O)N(C)C(C(C)C)C(=O)OC5C)ccc(C)c4oc-3c(C)c(=O)c2O)C(C)OC(=O)C(C(C)C)N(C)C(=O)CN(C)C(=O)C2CCCN2C1=O (stereo not given)
2. CN(C(=O)c1ccccc1)c1ccc2c(c1)C(=O)c1ccccc1C2=O
3. Cc1ccc(Nc2nc(O)c3[nH]cnc3n2)cc1CO
4. CC1(C)C(CBr)=[N+]([O-])C(C)(C)N1O
5. COC1CC2C3/C(=N/Nc4ccc([N+](=O)[O-])cc4[N+](=O)[O-])CCC2(C)C3C1 (stereo not given)

["10.2 µM (inactive)", "> 100 µM (inactive)", "18 µM (inactive)", "5.5 µM (inactive)", "> 100 µM (inactive)"]

Please give GI50 for each item listed below.
1. COc1ccc2c(c1)c1c3c(ccc4ncn2c43)N(CCN(C)C)CCN=1
2. O=c1ccc2nc3ccc(O)cc3oc-2c1
3. Oc1cc(-c2ccc3ccccc3c2)nc2ncccc12
4. Cc1ccc(/C=N/n2c(-c3ccc(C)cc3)n[nH]c2=O)cc1
5. Cc1cc(C)c(NC(=S)NC(=O)c2ccccc2)cc1C
6. C=C(C=O)CCCC(C)[C@@H]1CCC23CC12CCC1[C@@]2(C)CCC(OC(C)=O)C(C)(C)C2CC(OC2OC(COC(C)=O)C(O)C(O)C2O)[C@]13C (stereo not given in full)
7. CC(C)N1CCC2(CC1)NNc1ncccc1-n1cccc12
8. Cc1cc2c(cc1Cl)SC(NNC(=O)c1ccncc1)=NS2(=O)=O

1: 1.49 µM (inactive); 2: > 72.1 µM (inactive); 3: 19.8 µM (inactive); 4: 60.8 µM (inactive); 5: > 100 µM (inactive); 6: 6.58 µM (inactive); 7: > 100 µM (inactive); 8: > 10 µM (inactive)

Please give GI50 for each item listed below.
1. Clc1ccc(-c2cn3c(nc4ccccc43)c(/C=C/c3ccco3)n2)cc1
2. CCOC(=O)c1cc(C2CCN(c3ccccc3)C2=O)c(C(=O)/C=C(/C)O)[nH]1 (stereo not given)
3. CN(C)CCCNC(=O)c1cc(NC(=O)c2cc(NC(=O)[C@H]3C[C@@H]3C(=O)Nc3cc(C(=O)Nc4cc(C(=O)NCCCN(C)C)n(C)c4)n(C)c3)cn2C)cn1C

1: 24 µM (inactive); 2: > 100 µM (inactive); 3: > 10 µM (inactive)

Please give GI50 for each item listed below.
1. O=C(Nc1c(O)[nH]c(=S)[nH]c1=O)c1ccc2ccccc2n1
2. CC(=O)c1c(-c2ccco2)c(C#N)c(=S)n(C2OC(CO)C(O)C(O)C2O)c1C (stereo not given)
3. Cc1nc2c(c(=O)[nH]1)S/C(=C(/C#N)c1nc3ccccc3[nH]1)N2c1ccccc1

1. > 100 µM (inactive)
2. > 100 µM (inactive)
3. > 100 µM (inactive)

O=C1C2[C@@H](C(=O)N1c1ccc(Br)cc1)C13C(=CC2([N+](=O)[O-])[C@@H]2C(=O)N(c4ccc(Br)cc4)C(=O)[C@@H]21)c1ccccc1N3c1ccccc1 (stereo not given in full) yielded GI50 of > 100 µM (inactive)
